test: small-molecule microarray binders of probe aShh, primary screen, biochemical, biotinylated probe, 635/667 nm fluorescence (AID 1114); details: higher = more signal;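 further: probe is biotin-labelled aShh protein from a stem cell growth factor screen; measures binding of labelled protein to compounds printed on the slide; score merges feature fluorescence at 667 nm with signal-to-noise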
Could you label it 1 (yes) if measured composite z-score is 0.004 or higher, and 0 (no) otherwise?

>>> class_name("O=C1C[C@@H](O)[C@@H](O)[C@@H]2[C@@H]3C(=O)N(C4CCCCC4)C(=O)[C@@H]3CC[C@H]12")
"0 (no)"
>>> class_name("COCCCNC(=O)[C@@]1(CCS(=O)(=O)c2ccccc2)N=C(c2ccc(OCCCO)cc2)O[C@H]1c1ccccc1")
"1 (yes)"
>>> class_name("O=C1O[C@@H](c2ccccc2)[C@@H](c2ccccc2)N2[C@@H](c3ccc(OCCO)cc3)[C@]3(C(=O)Nc4ccccc43)[C@@H](C(=O)N3CCN(c4ncccn4)CC3)[C@H]12")
"1 (yes)"
>>> class_name("c1ccc(C2NCCc3c2[nH]c2ccccc32)cc1 (configuration not stated)")
"0 (no)"
>>> class_name("Cc1ccc(C2CC=C(C(=O)O)CN2S(=O)(=O)c2ccc(C)cc2)cc1 (configuration not stated)")
"0 (no)"
>>> class_name("C=CCC(OC(C)=O)[C@@H]1[C@@H](N(Cc2cc3ccccc3o2)C(=O)Cc2ccc(F)cc2)c2cc(OCCCO)ccc2N1C(=O)Cc1ccc(OC)cc1 (some centres not stated)")
"1 (yes)"
>>> class_name("COc1ccc([Si](C)(C)[C@H]2[C@H](CC(=O)N3CCC[C@H]3CO)O[C@@]3(C(=O)N(Cc4cccc(N5C(=O)COc6ccccc65)c4)c4ccccc43)[C@@H]2C)cc1")
"0 (no)"

====

experiment: anti-His antibody binders, primary screen, artefact control for SMM control protein annotation, biochemical, small-molecule microarray, 635 nm fluorescence (AID 1128); details: anti-His Alexa647 antibody binding, higher = more signal;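 further: score merges feature fluorescence with signal-to-noise for each printed compound spot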
Each entry below carries its reported composite z-score.
experimental endpoint: composite z-score

>>> recorded_number("COCCOC(=O)N1C(=O)[C@@]2(c3cc(C#CC4(O)CCCCCC4)ccc31)[C@H](c1ccc(OCCO)cc1)N1[C@H](c3ccccc3)[C@H](c3ccccc3)OC(=O)[C@H]1[C@@H]2C(=O)NC[C@H](O)c1ccccc1")
1.67
>>> recorded_number("CCOC(=O)[C@H](Cc1ccccc1)NC(=O)CCC1CC(OC(=O)NCc2ccc3c(c2)OCO3)CC2(CCCC(COC(=O)NCc3ccccc3)O2)O1 (stereo partly specified)")
1
>>> recorded_number("COc1ccc([Si](C)(C)[C@H]2[C@H](CC(=O)N3CCC[C@H]3CO)O[C@@]3(C(=O)N(Cc4cccc(N5C(=O)COc6ccccc65)c4)c4ccccc43)[C@@H]2C)cc1")
0.514
>>> recorded_number("CC(=O)C[C@H](O)[C@@H](NC(=O)OC(C)(C)C)C(C)C")
-0.0599
>>> recorded_number("COc1ccc(COC(=O)NN=C2C[C@@H](O)[C@@H](O)[C@@H]3[C@@H]4C(=O)N(Cc5ccc6c(c5)OCO6)C(=O)[C@@H]4CC[C@@H]23)cc1")
-0.272
>>> recorded_number("CN(C)CCCNC(=O)[C@@H]1c2ccccc2C(=O)N(Cc2cc(F)cc(C(F)(F)F)c2)[C@H]1c1ccc(CO)cc1")
0.77
>>> recorded_number("[N-]=[N+]=Nc1ccccc1C[C@@]1(C(N)=O)N=C(c2ccc(OCCCO)cc2)O[C@@H]1c1ccccc1")
0.42
>>> recorded_number("COC(=O)[C@@H]1CC[C@H](C)[C@@H](c2ccc(C)cc2)N1C(=O)c1ccc(C=NOC(C)CN2CCCCc3nc(C)c(C)cc32)cc1 (stereo partly specified)")
0.444
>>> recorded_number("COCCCNC(=O)[C@@]1(C)c2ccccc2C(=O)N(Cc2ccc(OC(F)(F)F)cc2)[C@H]1c1ccc(CO)cc1")
-0.95
>>> recorded_number("C[C@@H](c1ccccc1)N1C(=O)[C@H]2[C@H]3[C@H](O)[C@H](O)CC(=NOC[C@@H](O)COCc4ccco4)[C@@H]3CC[C@H]2C1=O")
-0.623
>>> recorded_number("O=C1[C@H]2[C@H]3[C@H](O)[C@H](O)CC(=NOC[C@@H](O)COCc4ccco4)[C@H]3CC[C@H]2C(=O)N1Cc1ccc2c(c1)OCO2")
0.729
>>> recorded_number("O=C1C2C=CC(C(O)c3ccc([N+](=O)[O-])cc3)N(Nc3ccc([N+](=O)[O-])cc3)C2C(=O)N1c1ccccc1 (stereo unspecified)")
0.953
>>> recorded_number("C=CC[C@]1(C(=O)NCc2ccccc2)N=C(c2ccc(OCCCO)cc2)O[C@H]1c1ccccc1")
-0.158
>>> recorded_number("CCCC[C@@H](O)C1=C(C)C[C@H]2C(=O)N(Cc3ccccc3)C(=O)[C@H]2[C@H]1CO")
0.314
>>> recorded_number("CO[C@H]1COC(=O)[C@H](C)NC(=O)[C@@H](C)COC(=O)CC=C[C@@H]1C")
-0.133
>>> recorded_number("COCCCNC(=O)[C@]1(Cc2ccccc2)N=C(c2ccc(OCCCO)cc2)O[C@@H]1c1ccccc1")
1.26
>>> recorded_number("NCCCCCNC(=O)[C@@H]1C[C@@H]2C(=O)N3CCC[C@H]3C(=O)N2[C@@H]1c1cccc(OCCO)c1")
1.83
>>> recorded_number("C#CCCCON=C1C[C@@H](O)[C@@H](O)[C@@H]2[C@@H]3C(=O)N(Cc4ccccc4)C(=O)[C@@H]3CC[C@H]12")
0.0056
>>> recorded_number("COc1ccc(CCNC(=O)[C@@H]2c3ccccc3C(=O)N(c3ccc(C)cn3)[C@H]2c2ccc(CO)cc2)cc1")
0.315
>>> recorded_number("C=C(/C(=C/C[C@H](OC(=O)c1ccncc1)c1ccc(OCCO)cc1)c1cnc2ccccc2c1)C(C)C")
0.426
>>> recorded_number("CC[C@@H](c1ccccc1)n1c(=O)n2n(c1=O)[C@H]1[C@H](O)[C@@H]3O[C@@H]3C(=NOCC=C(C)CCC=C(C)C)[C@H]1CC2")
0.592

====

test: E. coli growth modulation, two-sided OD650, primary screen, E. coli filamentation project, strain DRC41, 24 h (AID 1093); details: OD650, 24 h, higher = more signal, called active from +8 up or from −8 down;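 further: MC1000 strain lacking acrAB efflux and sulA so SOS filamentation is blocked; test concentration not given here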
experimental endpoint: z-score

>>> recorded_number("CO[C@H]1COC(=O)CC=C[C@H](C)[C@@H](NS(=O)(=O)c2ccc(C)cc2)COC(=O)CC=C[C@@H]1C")
-1.11
>>> recorded_number("CC(C)=CCCC(C)=CCON=C1[C@H]2CCn3c(=O)n(C)c(=O)n3[C@H]2[C@H](O)[C@@H]2O[C@H]12")
0.604
>>> recorded_number("COc1cccc([C@H]2Oc3ccc(OC)cc3C(=NO[C@H](C)c3cn([C@@H]4COC[C@H]4O)nn3)[C@@H]2O)c1")
-0.398
>>> recorded_number("CC1CC/C=C\\[C@H]2OC34C=CCN(C(C)C)C(=O)[C@H]3N(CCCO)C(=O)[C@@H]4C2C(=O)O1 (some centres not stated)")
1.14
>>> recorded_number("CC(=O)OC[C@H]1O[C@H](CC=NOC[C@@H](C)[C@H](OCc2ccccc2)C(C)C)C=C[C@@H]1OC(C)=O")
-0.186
>>> recorded_number("C[C@@H](c1ccccc1)N1C(=O)[C@H]2[C@H]3[C@H](O)[C@H](O)CC(=NOC[C@@H](O)COCc4ccco4)[C@@H]3CC[C@H]2C1=O")
0.181
>>> recorded_number("COC(=O)c1c(CC[C@@H](CO)NC(=O)N[C@H](Cc2ccccc2)Cn2cc(-c3ccccc3N)nn2)oc(C(C)=O)c1C(=O)OC")
0.382

====

test: basal MM1S mitochondrial membrane potential changes, profiling panel, cell-based, JC-1 fluorescence, 24 h, 100 nL compound (AID 1170); conditions: higher = more signal; further: test concentration not given here
Could you label it 1 if measured z-score is 0.2 or higher, and -1 otherwise?

>>> class_name("CO[C@@H]1COC(=O)CCC[C@@H](C)[C@H](OC)COC(=O)[C@H](Cc2ccccc2)NC(=O)CC=C[C@H]1C")
-1
>>> class_name("C[C@H](c1ccccc1)N1C(=O)[C@H]2[C@H]3[C@H](O)[C@H](O)CC(=O)[C@@H]3CC[C@H]2C1=O")
1
>>> class_name("CCOC(=O)NN=C1C[C@@H](O)[C@@H](O)[C@@H]2[C@@H]3C(=O)N(C[C@@H]4CCCO4)C(=O)[C@@H]3CC[C@@H]12")
-1
>>> class_name("COc1cccc([C@H]2Oc3ccc(OC)cc3C(=NO[C@H](C)c3cn([C@@H]4COC[C@H]4O)nn3)[C@@H]2O)c1")
-1
>>> class_name("COC(=O)C1=C(C)[C@@H](O)[C@@H](C)[C@H](c2c(OC)c(OC)c(C)c(OC)c2OC)O1")
-1
>>> class_name("C=C(/C(=C/C[C@H](OC(=O)c1ccncc1)c1ccc(OCCO)cc1)c1cnc2ccccc2c1)C(C)C")
-1
>>> class_name("CCCNC(=O)[C@@H]1c2ccccc2C(=O)N(Cc2ccccc2Cl)[C@H]1c1ccc(CO)cc1")
1
>>> class_name("O=C(CS)NCCCCCNC(=O)[C@H]1C[C@H]2C(=O)N3CCC[C@H]3C(=O)N2[C@H]1c1cccc(OCCO)c1")
-1
>>> class_name("COCCOC(=O)N1C(=O)[C@@]2(c3cc(C#CC4(O)CCCCCC4)ccc31)[C@H](c1ccc(OCCO)cc1)N1[C@H](c3ccccc3)[C@H](c3ccccc3)OC(=O)[C@H]1[C@@H]2C(=O)NC[C@H](O)c1ccccc1")
-1
>>> class_name("c1ccc(C2NCCc3c2[nH]c2ccccc32)cc1 (stereo not given)")
1
>>> class_name("COc1ccc(OC[C@H]2Cc3c(-c4ccccc4)nc4c(c3CO2)CN(CCOc2ccccc2)CC4)cc1")
1
>>> class_name("CCOC(=O)CCN1C(=O)[C@H]2[C@H]3[C@H](O)[C@H](O)CC(=NOC[C@@H](O)COCc4ccco4)[C@H]3CC[C@H]2C1=O")
-1
>>> class_name("CCCNC(=O)OC[C@H]1O[C@H](CCON=CC[C@@H]2C=C[C@H](OC(C)=O)[C@@H](COC(C)=O)O2)C=C[C@@H]1Oc1ccc(OC)cc1")
1
>>> class_name("O=C1C[C@@H](O)[C@@H](O)[C@@H]2[C@@H]3C(=O)N(c4ccc(F)cc4F)C(=O)[C@@H]3CC[C@@H]12")
1
>>> class_name("CC[C@@H](c1ccccc1)n1c(=O)n2n(c1=O)[C@H]1[C@H](O)[C@@H]3O[C@@H]3C(=NOCC(C)C)[C@H]1CC2")
1
>>> class_name("COCCCNC(=O)[C@]1(CCC(=O)OC(C)(C)C)N=C(c2ccc(OCCCO)cc2)O[C@@H]1c1ccccc1N=[N+]=[N-]")
-1
>>> class_name("CCc1cccc(NC(=O)O[C@H]2[C@H](OC(=O)Nc3ccc4c(c3)OCO4)[C@@H](OC(=O)Nc3ccc4c(c3)OCO4)[C@@H](OC)O[C@@H]2CO)c1")
-1
>>> class_name("C[C@@H](c1ccccc1)N1C(=O)[C@H]2[C@H]3[C@H](O)[C@H](O)CC(=NOC[C@@H](O)COCc4ccco4)[C@@H]3CC[C@H]2C1=O")
-1
>>> class_name("Cn1cccc1C(O)C1C=CC2C(=O)NC(=O)C2N1Nc1ccccn1 (stereo not given)")
-1
>>> class_name("O=C1O[C@@H](c2ccccc2)[C@@H](c2ccccc2)N2[C@@H](c3ccc(OCCO)cc3)[C@]3(C(=O)Nc4ccccc43)[C@@H](C(=O)N3CCN(c4ncccn4)CC3)[C@H]12")
-1
